# assayed.system: human NQO1 p.R139W (Homo sapiens, UniProt P15559, R139W)
# Sequence (P15559 whole entry R139W): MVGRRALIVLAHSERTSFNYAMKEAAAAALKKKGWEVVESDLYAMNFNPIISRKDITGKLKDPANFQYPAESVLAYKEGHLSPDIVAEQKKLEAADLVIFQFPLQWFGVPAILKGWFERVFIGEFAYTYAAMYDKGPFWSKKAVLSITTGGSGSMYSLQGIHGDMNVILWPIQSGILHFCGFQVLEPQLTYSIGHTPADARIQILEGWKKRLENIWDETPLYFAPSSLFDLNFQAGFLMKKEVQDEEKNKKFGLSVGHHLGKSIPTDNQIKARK
# assay.explanation: biochemical
measured.quantity: Ki

Query block: Note Ki for the molecule shown: NC(=O)c1cccnc1 [Nicotinamide, nicotinamide]
Result block: 13.5 mM

----------
# Lookup of reported Ki keyed by entry
# assayed.system: human wild-type NQO1 (Homo sapiens, UniProt P15559)
# Sequence (P15559 whole entry): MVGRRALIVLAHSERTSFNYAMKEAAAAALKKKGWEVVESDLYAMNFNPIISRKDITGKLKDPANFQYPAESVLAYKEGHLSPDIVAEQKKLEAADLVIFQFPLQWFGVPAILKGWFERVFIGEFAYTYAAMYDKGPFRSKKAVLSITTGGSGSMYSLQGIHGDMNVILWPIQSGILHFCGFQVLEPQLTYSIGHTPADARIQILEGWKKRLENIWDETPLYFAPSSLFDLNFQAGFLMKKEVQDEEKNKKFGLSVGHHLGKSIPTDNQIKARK
Kindly answer with a numeric value in mM, unit omitted.

molecule: NC(=O)c1cccnc1 [Nicotinamide, nicotinamide]
obs.value: 14

--- query ---
Query block: State recorded Ki with human wild-type NQO1 (Homo sapiens, UniProt P15559), entry "Oc1ccc(/C=C/c2cc(O)cc(O)c2)cc1" , no comment.
Result block: 0.375
